- testMethodNotes: Low temperature CW-EPR of Cu(II) binding to Ctr1 N-terminal peptides in KPi buffer
- conditionInfo: peptide:Cu(II) molar ratio 1:1.4; 130 K
// reported percentage of Cu(II) bound to peptide (species other than 4O coordination) for each item listed
measurementKind: percentage of Cu(II) bound to peptide (species other than 4O coordination) (%)

chainSequence | resultNumber
MDHSHHMAMSYMDS (Pep2 peptide amino acid sequence) | 60
MDHSHHMGMSYMDS (Pep1 peptide amino acid sequence) | 70
MDHSHAMGMSYMDS (Pep5 peptide amino acid sequence) | 40
MDASHHMGMSYMDS (Pep3 peptide amino acid sequence) | 63
MDHSAHMGMSYMDS (Pep4 peptide amino acid sequence) | 92
